Cited source: paper PMC5445010

- testedSystem: IspH
- Format: biochemical
- runParameters: read-out: IspH inhibition Ki
pKi: −log10 of the molar value.
measuredAttribute: pKi

INSERT INTO results (compound, val) VALUES
  ('C#CCO [propargyl alcohol]', '< 2.00');
